Value source: ChEMBL document CHEMBL2169839

assayTarget: Aldo-keto reductase family 1 member C3 (Homo sapiens)
Sequence (P42330 whole entry): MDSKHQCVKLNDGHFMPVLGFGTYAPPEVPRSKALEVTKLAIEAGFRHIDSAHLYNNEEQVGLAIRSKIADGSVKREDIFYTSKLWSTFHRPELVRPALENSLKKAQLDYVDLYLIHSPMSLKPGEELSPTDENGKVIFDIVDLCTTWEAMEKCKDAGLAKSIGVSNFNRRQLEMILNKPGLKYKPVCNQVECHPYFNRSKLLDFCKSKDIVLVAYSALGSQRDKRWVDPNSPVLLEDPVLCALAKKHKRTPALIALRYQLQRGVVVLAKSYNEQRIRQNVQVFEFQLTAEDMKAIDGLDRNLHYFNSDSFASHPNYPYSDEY
assayNotes: Inhibition of AKR1C3 overexpressed in human HCT116 cells assessed as inhibition of PR-104A conversion to hydroxylamine after 2 hrs by LC-MS/MS analysis
pIC50: −log10 of the molar value.
Reported pIC50 by item:
resultType: pIC50

# compound, reported
records = [
    ("CC1c2ccccc2CCN1S(=O)(=O)c1cccc(C(=O)O)c1 (centres undefined)", 7.62),
    ("O=C(O)c1cccc(S(=O)(=O)N2CCc3cccc(Cl)c3C2)c1", 7.55),
    ("O=C(O)c1cccc(S(=O)(=O)N2CCc3ccc(Br)cc3C2)c1", 7.70),
    ("COc1ccc2c(c1)CCN(S(=O)(=O)c1cccc(C(=O)O)c1)C2", 6.41),
]
